Kindly state change in melting temperature (ΔTm) for each of the entries shown.
test: Stabilization of d[G3(T2AG3)3] sequence of F21T telomeric G-quadruplex DNA assessed as change in melting temperature at 1 uM by FRET assay
Numbers only, in °C.

molecule_smiles | meas_value
O=C(CCN1CCCC1)Nc1cc(NC(=O)Nc2cc(NC(=O)CCN3CCCC3)cc(C(=O)Nc3ccccc3)c2)cc(C(=O)Nc2ccccc2)c1 | 13.3
O=C(CCCN1CCCC1)Nc1cccc(NC(=O)c2cccc(NC(=O)Nc3cccc(C(=O)Nc4cccc(NC(=O)CCCN5CCCC5)c4)c3)c2)c1 | 13.6
O=C(CCN1CCCCC1)Nc1ccc(NC(=O)c2cccc(NC(=O)Nc3cccc(C(=O)Nc4ccc(NC(=O)CCN5CCCCC5)cc4)c3)c2)cc1 | 5.2

Could I get change in melting temperature (ΔTm) for every one of these entries?
1. O=C(CCCN1CCCC1)Nc1ccc(NC(=O)c2cccc(NC(=O)Nc3cccc(C(=O)Nc4ccc(NC(=O)CCCN5CCCC5)cc4)c3)c2)cc1
2. O=C(CN1CCCC1)Nc1cc(NC(=O)Nc2cc(NC(=O)CN3CCCC3)cc(C(=O)Nc3ccccc3)c2)cc(C(=O)Nc2ccccc2)c1
3. O=C(CN1CCCC1)Nc1cccc(NC(=O)c2ccc(NC(=O)Nc3ccc(C(=O)Nc4cccc(NC(=O)CN5CCCC5)c4)cc3)cc2)c1

1: 12; 2: 13.6; 3: 1.8
